Origin of values: PubChem BioAssay AID1159580

Recorded normalized growth for the following compounds
- assay comment: chemical genetic growth profiling, strain panel (AID 1159580);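 further: tested at 20 µM; growth read once vehicle control cultures reached saturation at 30 °C; 1 = growth at the plate median or of vehicle wells; lower values mean less growth of the strain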
- condition set: S. cerevisiae deletion strains, growth OD, locus YNL128W, strain TEP1, stronger effect = lower value
Hit rate of the full screen: of about 5,500 compounds, about 2,000 (36%) were called active. Not shown: some 18% with an inconclusive outcome. The list shows a part of the results.
Give only the figure.

Any idea what its normalized growth is? The compound is `CCCN(CCC)CCc1cccc2c1CC(=O)N2` 0.989

Any idea what its normalized growth is? The compound is CCC(CCC(C)C1CCC2C3CC=C4C[C@@H](OC(C)=O)CC[C@]4(C)C3CC[C@]12C)C(C)C (some centres not stated) 1.01

Any idea what its normalized growth is? The compound is `COc1ccc(-c2cc(C(F)F)nn2-c2ccc(S(N)(=O)=O)cc2)cc1F` 1

Any idea what its normalized growth is? The compound is `O=C(O)c1cc(=O)c2c(OCC(O)COc3cccc4oc(C(=O)O)cc(=O)c34)cccc2o1` 1.02

Any idea what its normalized growth is? The compound is `CC[C@]12CCCN3CCc4c(n(c5ccccc45)[C@](O)(C(=O)OC)C1)[C@@H]32` 0.974

Any idea what its normalized growth is? The compound is `O=C1c2cccc3c(SCCO)ccc(c23)C(=O)N1CCc1ccccn1` 1

Any idea what its normalized growth is? The compound is `COc1ccccc1N1CCNCC1` 1.01

Any idea what its normalized growth is? The compound is CCCN(CCC)C(=O)C(CCC(=O)O)NC(=O)c1ccccc1 (configuration not stated) 0.983

Any idea what its normalized growth is? The compound is `COP(=S)(OC)Oc1ccc(SC)c(C)c1` 1.02

Any idea what its normalized growth is? The compound is `O=C1O[C@@H](CO)[C@H](O)[C@@H](O)[C@@H]1O` 1.02

Any idea what its normalized growth is? The compound is `CCOC(=O)Nc1ccc(NCc2ccc(F)cc2)nc1N` 0.993

Any idea what its normalized growth is? The compound is `COc1ccccc1NC(=O)Nc1nc(-c2cccnc2)nc2ccccc12` 0.998

Any idea what its normalized growth is? The compound is `O=C(O)CCC(=O)c1ccc(-c2ccccc2)cc1` 0.982

###

- assay comment: chemical genetic growth profiling, strain panel (AID 1159580)
- condition set: S. cerevisiae deletion strains, growth OD, locus YAL040C, strain CLN3, stronger effect = lower value
The campaign covered roughly 5,500 compounds. About 2,000 (36%) were called active. Not shown: some 18% with an inconclusive outcome. Some of the results follow.
Recorded normalized growth for the following molecules
Give only the figure.

Any idea what its normalized growth is? The molecule is `Cn1ccc2cc3c(cc21)CCN3C(=O)Nc1cccnc1` 1

Any idea what its normalized growth is? The molecule is `COc1ccc2c(c1O)-c1cccc3c1[C@@H](C2)N(C)CC3` 0.995

Any idea what its normalized growth is? The molecule is CN1CCc2cccc3c2C1Cc1ccc(O)c(O)c1-3 (stereo not given) 0.989

Any idea what its normalized growth is? The molecule is `NC(=O)c1cnccn1` 1

Any idea what its normalized growth is? The molecule is CCCN1CCOC2c3cc(O)ccc3OCC21 (stereo not given) 0.983

// switching to the query molecule
Any idea what its normalized growth is? The molecule is `CCCn1c(=O)c2[nH]c(-c3ccc(S(=O)(=O)O)cc3)nc2n(CCC)c1=O` 0.994

###

- assay comment: chemical genetic growth profiling, strain panel (AID 1159580)
- condition set: S. cerevisiae deletion strains, growth OD, locus YNL183C, strain NPR1
Among all 5,500 compounds or so, about 2,000 (36%) were called active. About 18% were inconclusive and are not listed. Rule as the data show it: active = normalized growth mostly below about 0.91 (no sharp cut-off); inconclusive = no clear call, values can overlap the other calls; inactive = mostly above about 0.92. This is one part of the list.
Choose the fitting class; nothing outside 1 for active, 0 for inactive is accepted.

What outcome does the record of this test show for CC(=O)Oc1cc(C)c2c(c1C(OC(C)=O)OC(C)=O)Oc1c(c(C)c(OC(C)=O)c3c1C(OC(C)=O)OC3=O)OC2=O (configuration not stated) ? 0

What outcome does the record of this test show for `O=C(O)CCC(=O)c1ccc(-c2ccccc2)cc1` ? 1

###

- assay comment: chemical genetic growth profiling, strain panel (AID 1159580)
- condition set: S. cerevisiae deletion strains, growth OD, locus YGL173C, strain kem1, stronger effect = lower value
In all, about 5,500 compounds went through this assay and about 2,000 (36%) were called active. Roughly 18% stayed inconclusive and do not appear here. Some of the results follow.
Recorded normalized growth for the following compounds
Give only the figure.

Answered examples (2):
Any idea what its normalized growth is? The compound is `O=C(O)c1ccc2c(c1)OCO2` 1.01

Any idea what its normalized growth is? The compound is CCCN(CCC)C(=O)C(CCC(=O)O)NC(=O)c1ccccc1 (configuration not stated) 0.982

Further cases:
Any idea what its normalized growth is? The compound is CC12CCCC(O)(C1)C1CC(C)(C)C1CC2 (configuration not stated) 0.977

Any idea what its normalized growth is? The compound is CCC(COC(=O)c1cc(OC)c(OC)c(OC)c1)(c1ccccc1)N(C)C (configuration not stated) 0.985

Any idea what its normalized growth is? The compound is `COc1cc(/C=C/C(=O)O)ccc1O` 1.01

Any idea what its normalized growth is? The compound is `CO[C@@H]1[C@@H](O[C@@H]2O[C@H](C)[C@@H](O[C@H]3C[C@@](C)(O)[C@H](O)[C@H](C)O3)[C@H](N(C)C)[C@H]2O)[C@@H](CC=O)C[C@@H](C)[C@@H](O[C@H]2CC[C@H](N(C)C)[C@@H](C)O2)/C=C/C=C/C[C@H](C)OC(=O)C[C@H]1O` 1.01

Any idea what its normalized growth is? The compound is `CCn1cc(C(=O)O)c(=O)c2cnc(N3CCCC3)nc21` 1

###

Recorded normalized growth for the following compounds
- assay comment: chemical genetic growth profiling, strain panel (AID 1159580);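 further: tested at 20 µM; growth read once vehicle control cultures reached saturation at 30 °C; 1 = growth at the plate median or of vehicle wells; lower values mean less growth of the strain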
- condition set: S. cerevisiae deletion strains, growth OD, strain wtn01, stronger effect = lower value
Among all 5,500 compounds or so, about 2,000 (36%) were called active. Inconclusive results (about 18%) are left out. This is one part of the list.
Give only the figure.

Any idea what its normalized growth is? The compound is `CCOC(=O)C1=C[C@]2(CC)CCCN3CCc4c(n1c1ccccc41)[C@@H]32` 0.993

Any idea what its normalized growth is? The compound is `COc1cc(/C=C/C(=O)O)cc(OC)c1OC` 1.01

Further cases:
Any idea what its normalized growth is? The compound is `Oc1cc(O)cc(/C=C/c2ccccc2)c1` 1

Any idea what its normalized growth is? The compound is `COc1ccc(/C=C/C(=O)O)cc1OC` 1.02

Any idea what its normalized growth is? The compound is `COc1ccc(/C=C/c2cc(O)cc(O[C@@H]3O[C@H](CO)[C@@H](O)[C@H](O)[C@H]3O)c2)cc1O` 0.994

###

- assay comment: chemical genetic growth profiling, strain panel (AID 1159580);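 further: tested at 20 µM; growth read once vehicle control cultures reached saturation at 30 °C; 1 = growth at the plate median or of vehicle wells; lower values mean less growth of the strain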
- condition set: S. cerevisiae deletion strains, growth OD, locus YJL154C, strain vps35, stronger effect = lower value
The campaign covered roughly 5,500 compounds. About 2,000 (36%) were called active. Another 18% or so got no clear call; they are omitted. The list shows a part of the results.
Recorded normalized growth for the following molecules
Give only the figure.

Answered examples (2):
Any idea what its normalized growth is? The molecule is `O=C(O)P(=O)(O)O` 0.977

Any idea what its normalized growth is? The molecule is `CO[C@@H]1[C@@H](O[C@@H]2O[C@H](C)[C@@H](O[C@H]3C[C@@](C)(O)[C@H](O)[C@H](C)O3)[C@H](N(C)C)[C@H]2O)[C@@H](CC=O)C[C@@H](C)[C@@H](O[C@H]2CC[C@H](N(C)C)[C@@H](C)O2)/C=C/C=C/C[C@H](C)OC(=O)C[C@H]1O` 1.02

// switching to the query molecule
Any idea what its normalized growth is? The molecule is `CC[C@]12CCCN3CCc4c(n(c5ccccc45)[C@](O)(C(=O)OC)C1)[C@@H]32` 0.968

###

- assay comment: chemical genetic growth profiling, strain panel (AID 1159580);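 further: tested at 20 µM; growth read once vehicle control cultures reached saturation at 30 °C; 1 = growth at the plate median or of vehicle wells; lower values mean less growth of the strain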
- condition set: S. cerevisiae deletion strains, growth OD, locus YOR144C, strain elg1, stronger effect = lower value
Screen size: about 5,500 compounds; about 2,000 (36%) were called active. Inconclusive results (about 18%) are left out. The list shows a part of the results.
recorded metric: normalized growth
Give only the figure.

Answered examples (8):
Any idea what its normalized growth is? The compound is `COc1ccc2c(c1O)-c1c(OC)c(OC)cc3c1[C@H](C2)N(C)CC3` 1.01

Any idea what its normalized growth is? The compound is COc1cc2c(cc1O)CC1c3c(cc(O)c(OC)c3-2)CCN1C (stereo unspecified) 0.993

Any idea what its normalized growth is? The compound is `CCOP(=S)(OCC)SCSP(=S)(OCC)OCC` 0.989

Any idea what its normalized growth is? The compound is C[C@@H]1CC2C3CCC4=CC(=O)C=C[C@]4(C)[C@@]3(F)[C@@H](O)C[C@]2(C)[C@@]1(O)C(=O)COP(=O)(O)O (stereo partly specified) 0.997

Any idea what its normalized growth is? The compound is CC(=O)O[C@H]1C[C@@H](OC(C)=O)C(C)(C)C2C[C@@H](OC(C)=O)[C@]3(C)C(CC[C@@]4(C)[C@H](c5ccoc5)C(=O)[C@H]5O[C@]543)[C@]21C (stereo partly specified) 1.02

Any idea what its normalized growth is? The compound is `Oc1cc(O)cc(/C=C/c2ccccc2)c1` 0.999

Any idea what its normalized growth is? The compound is `COc1cc(/C=C/C(=O)O)ccc1O` 0.977

Any idea what its normalized growth is? The compound is `CCOP(=S)(OCC)SCSCC` 0.996

Further cases:
Any idea what its normalized growth is? The compound is CO[C@@H]1C[C@@H](C[C@H]2CC[C@H](C)[C@H]([C@@H](C)C(=O)O)O2)O[C@]2(O[C@](C)([C@H]3CC[C@@](C)(C4O[C@@H](C5O[C@@](O)(CO)[C@H](C)C[C@@H]5C)C[C@@H]4C)O3)C[C@H]2C)[C@@H]1C (stereo partly specified) 0.988

Any idea what its normalized growth is? The compound is CCN(CC)CCOC(=O)C(Cc1cccc2ccccc12)CC1CCCO1 (stereo unspecified) 1

Any idea what its normalized growth is? The compound is `NC(=O)c1cnccn1` 1

Any idea what its normalized growth is? The compound is CC(Cc1ccc(O)c(O)c1)(NN)C(=O)O (stereo unspecified) 1

Any idea what its normalized growth is? The compound is `COc1ccc(/C=C/C(=O)O)cc1OC` 1

Any idea what its normalized growth is? The compound is `COS(C)(=O)=O` 1

Any idea what its normalized growth is? The compound is CC(=O)C1=C(O)C2C3c4c[nH]c5cccc(c45)CC3C(C)(C)N2C1=O (stereo unspecified) 1

Any idea what its normalized growth is? The compound is CC[C@@]1(C2O[C@@H](C3O[C@@](O)(CC)[C@H](C)C[C@@H]3C)C[C@@H]2C)CC[C@H]([C@]2(C)CCC3(C[C@H](O)[C@@H](C)[C@@H]([C@H](C)[C@@H](OC)[C@H](C)C(=O)O)O3)O2)O1 (stereo partly specified) 1.01

Any idea what its normalized growth is? The compound is CC(=O)OCC(=O)[C@@]12OC(C)(C)O[C@@H]1CC1C3C[C@H](F)C4=CC(=O)C=C[C@]4(C)[C@@]3(F)[C@@H](O)C[C@@]12C (stereo partly specified) 1

Any idea what its normalized growth is? The compound is `CS(=O)(=O)OCCCCOS(C)(=O)=O` 0.984

Any idea what its normalized growth is? The compound is CC1(C)CC2C1CCC1(C)OC1CCC2(C)O (stereo unspecified) 1.01

Any idea what its normalized growth is? The compound is `Nc1nccs1` 0.992

Any idea what its normalized growth is? The compound is `CC[C@]12CCCN3CCc4c(n(c5ccccc45)C(=O)C1)[C@@H]32` 0.99

Any idea what its normalized growth is? The compound is `CCOC(=O)c1ccc(N)cc1` 0.997

Any idea what its normalized growth is? The compound is `COc1ccc(-c2cc(C(F)F)nn2-c2ccc(S(N)(=O)=O)cc2)cc1F` 1.01
